Data provenance is patent US8283353B2.

Molecular target: human PPARγ (Homo sapiens, UniProt P37231)
Construct: expressed in transfected cells
Sequence (P37231 29-505): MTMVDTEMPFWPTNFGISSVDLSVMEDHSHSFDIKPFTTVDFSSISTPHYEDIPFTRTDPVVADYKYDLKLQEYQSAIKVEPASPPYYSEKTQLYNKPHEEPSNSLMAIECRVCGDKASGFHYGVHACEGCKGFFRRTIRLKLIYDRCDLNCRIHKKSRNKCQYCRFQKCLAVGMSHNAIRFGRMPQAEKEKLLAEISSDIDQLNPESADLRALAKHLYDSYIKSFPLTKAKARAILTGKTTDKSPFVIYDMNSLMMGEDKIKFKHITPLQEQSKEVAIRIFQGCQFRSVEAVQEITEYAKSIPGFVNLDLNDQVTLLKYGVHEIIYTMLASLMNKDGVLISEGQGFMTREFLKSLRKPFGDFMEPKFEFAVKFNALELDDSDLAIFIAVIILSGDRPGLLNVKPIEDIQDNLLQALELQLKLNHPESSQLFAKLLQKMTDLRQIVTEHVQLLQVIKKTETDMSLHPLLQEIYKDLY
Sequence (P19793 whole entry partner): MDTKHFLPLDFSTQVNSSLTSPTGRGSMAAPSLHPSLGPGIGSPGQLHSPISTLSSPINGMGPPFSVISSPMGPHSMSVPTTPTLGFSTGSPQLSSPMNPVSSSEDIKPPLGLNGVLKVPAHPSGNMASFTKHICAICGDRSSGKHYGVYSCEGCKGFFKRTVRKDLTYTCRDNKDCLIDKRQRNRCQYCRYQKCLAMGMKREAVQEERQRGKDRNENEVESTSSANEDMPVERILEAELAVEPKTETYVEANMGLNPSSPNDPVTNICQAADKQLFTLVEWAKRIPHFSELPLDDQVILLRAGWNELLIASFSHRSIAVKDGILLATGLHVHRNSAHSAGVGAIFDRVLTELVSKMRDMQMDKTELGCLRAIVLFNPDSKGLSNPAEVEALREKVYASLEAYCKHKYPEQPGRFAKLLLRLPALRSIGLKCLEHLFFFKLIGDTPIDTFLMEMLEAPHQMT
Test: PPARγ agonistic activity: luciferase reporter assay in PPARγ:RXRα:4ERPP/CHO-K1 cells
Type: cell-based
Conditions: CHO-K1, test compound 10^−6 M; luciferase activity of control compound X (1 μM) = 100%, non-administration group = 0%
Experimental endpoint: activation at 1 µM (%)

In the examples that follow, each entry is paired with its recorded activation at 1 µM.
Compound	Unit spec	Value observed
CCCc1c(Cc2ccc(-c3ccccc3-c3noc(=O)[nH]3)cc2)c(=O)n(Cc2ccc(F)cc2)c2ncnn12	%	39
CCCc1c(Cc2ccc(-c3ccccc3-c3noc(=O)[nH]3)cc2)c(=O)n([C@H]2CC[C@H](OCC(C)(C)O)CC2)c2c(F)cnn12	%	22
CCCc1c(Cc2ccc(-c3ccccc3-c3noc(=O)[nH]3)cc2)c(=O)n(C/C(=N\OCC)C(F)(F)F)c2nc(C)nn12	%	16
CCCc1c(Cc2ccc(-c3ccccc3-c3noc(=O)[nH]3)cc2F)c(=O)n([C@H]2CC[C@H](OCC3(O)CCC3)CC2)c2ncnn12	%	40
CCCc1c(Cc2ccc(-c3ccccc3-c3noc(=O)[nH]3)cc2)c(=O)n([C@H]2CC[C@H](Oc3ccon3)CC2)c2ncnn12	%	53

a = CCCc1c(Cc2ccc(-c3ccccc3-c3noc(=O)[nH]3)cc2)c(=O)n([C@H]2CC[C@@H](OCCO)CC2)c2ncnn12
b = CCCc1c(Cc2ccc(-c3ccccc3-c3noc(=O)[nH]3)cc2)c(=O)n(C(C)CC)c2nc(C)nn12 (stereo not shown)
Lookup: Choose between a and b : whose measured activation at 1 µM value is numerically larger? State your choice using its label.
Found: a

a = CCCc1c(Cc2ccc(-c3ccccc3-c3noc(=O)[nH]3)cc2F)c(=O)n([C@H]2CC[C@H](OC(C)C(O)(CF)CF)CC2)c2ncnn12 (stereo partly shown)
b = CCCc1c(Cc2ccc(-c3ccccc3-c3noc(=O)[nH]3)cc2)c(=O)n(C2CCC(=NOC3CCOCC3)CC2)c2ncnn12 (stereo not shown)
Lookup: Between a and b , whose measured activation at 1 µM reads higher? The response must carry the label of the picked entry.
Found: a

I = CCCc1c(Cc2ccc(-c3ccccc3-c3noc(=O)[nH]3)cc2)c(=O)n([C@H]2CC[C@H](OCC(C)(O)CC)CC2)c2ncnn12 (stereo partly shown)
II = C=C1COC2(CCC(n3c(=O)c(Cc4ccc(-c5ccccc5-c5noc(=O)[nH]5)cc4)c(CCC)n4ncnc34)CC2)OC1
Lookup: Endpoint returns whichever of I and II has the numerically higher activation at 1 µM. Reply with the label of the item you choose.
Found: II
(II: 34%, I: 18%)

a = CCCc1c(Cc2ccc(-c3ccccc3-c3noc(=O)[nH]3)cc2)c(=O)n(C2CCCCC2)c2nc(C)nn12
b = CCCc1c(Cc2ccc(-c3ccccc3-c3noc(=O)[nH]3)cc2)c(=O)n([C@H]2CC[C@H](OCC3(O)CCC3)CC2)c2ncnn12
Lookup: Field: lower recorded activation at 1 µM (choose a or b ) In your reply, give the label of the chosen option.
Found: a

====

Molecular target: human PPARγ (Homo sapiens, UniProt P37231)
Construct: expressed in transfected cells
Test: PPARγ agonistic activity: luciferase reporter assay in PPARγ:RXRα:4ERPP/CHO-K1 cells
Format: cell-based
Details: CHO-K1, test compound 10^−6 M; luciferase activity of control compound X (1 μM) = 100%, non-administration group = 0%
Experimental endpoint: activation at 1 µM (%)

These recorded examples may help you get a feel for the data.
Molecule	activation at 1 µM (%)
CCCc1c(Cc2ccc(-c3ccccc3-c3noc(=O)[nH]3)cc2F)c(=O)n([C@H]2CC[C@H](OCC(C)(C)O)CC2)c2ncnn12	26
CCCc1c(Cc2ccc(-c3ccccc3-c3noc(=O)[nH]3)cc2)c(=O)n(C2CCC(C(C)(C)O)CC2)c2ncnn12 (stereo not shown)	19
CCCc1c(Cc2ccc(-c3ccccc3-c3noc(=O)[nH]3)cc2F)c(=O)n(Cc2ccc(OC)cc2OC)c2ncnn12	33
CCCc1c(Cc2ccc(-c3ccccc3-c3noc(=O)[nH]3)cc2)c(=O)n([C@H]2CC[C@H](OCCO)CC2)c2ncnn12	18
CCCc1c(Cc2ccc(-c3ccccc3-c3noc(=O)[nH]3)cc2)c(=O)n([C@H]2CC[C@H](OCC(C)=O)CC2)c2ncnn12	24

A = CCCc1c(Cc2ccc(-c3ccccc3-c3noc(=O)[nH]3)cc2)c(=O)n([C@H]2CC[C@H](OCC(C)(O)C(F)(F)F)CC2)c2ncnn12 (stereo partly shown)
B = CCCc1c(Cc2ccc(-c3ccccc3-c3noc(=O)[nH]3)cc2)c(=O)n([C@H]2CC[C@]3(CCC(CO)O3)CC2)c2ncnn12 (stereo partly shown)
Lookup: Which value of activation at 1 µM is numerically greater: that of A or that of B ? Identify your selection by its label.
Found: B
(B: 28%, A: 19%)

P = CCCc1c(Cc2ccc(-c3ccccc3-c3noc(=O)[nH]3)cc2)c(=O)n([C@H]2CC[C@H](OCC(C)O)CC2)c2ncnn12 (stereo partly shown)
Q = CCCc1c(Cc2ccc(-c3ccccc3-c3noc(=O)[nH]3)cc2)c(=O)n([C@H]2CC[C@H](OCC(C)O)CC2)c2ccnn12 (single isomer, unassigned) [Example 440]
Lookup: Lab log: flag the item ( P or Q ) with the smaller activation at 1 µM figure. Record your answer as the label of the chosen record.
Found: Q
(Q: 16%, P: 34%)
